Below, each entry is listed with its recorded melting point.

Worked set:
COC(=O)CCc1ccc(CCNC(=O)c2cc(Cl)ccc2OC)cc1 = 58 to 61 °C
CC(=O)c1cc(C)c(OCC(=O)O)c(C)c1 = 166 to 167 °C
CC12CCc3ccccc3C1=NNC(=O)C2 (stereo unspecified) = 189 to 190 °C
COc1ccc(S(=O)(=O)C(CCCCc2ccccc2)(CC(=O)O)c2ccccc2)cc1 (stereo unspecified) = 75 to 78 °C
CC#CCOc1ccc(S(=O)(=O)C(C(=O)NO)C2CCN(C(C)=O)CC2)cc1 (stereo unspecified) = 103 °C

I'd like to know its melting point. The molecule in question is CCOC(=O)COc1ccc(-c2nc(-c3ccc(C)cc3)nc(-c3ccc(C)cc3)n2)c(O)c1
166 to 167 °C

----------
Below, each entry is listed with its recorded melting point.

Worked set:
CC(=O)c1cccc2c1C1(COc3cc4c(cc31)OCCO4)C(=O)N2C (stereo not given) = 234 to 235 °C
COC(=O)Cc1nc2nc(C)cc(Cl)n2n1 = 111 to 112 °C

I'd like to know its melting point. The compound in question is COC(=O)CCc1ccc(O)c(C(C)(C)C)c1
59 to 61 °C

Now give it for CCn1c(=O)ccc2cnc(Nc3ccc(-c4ccccc4)cc3)nc21 too.
207 to 208 °C

Now give it for NS(=O)(=O)c1ccc(-c2cnn(Cc3c(F)cc(F)cc3F)c(=O)c2-c2ccc(F)cc2)cc1 too.
201 to 203 °C

----------
Assay Readout: melting point

Worked set:
C[C@@H](N(CC(=O)O)C(=O)c1ccc(OC(F)(F)F)cc1)[C@](O)(Cn1cncn1)c1ccc(F)cc1F (relative stereo) = 99 to 105 °C
Cc1cc(Oc2ccccc2)ccc1C(=O)CBr = 60 to 61 °C
COc1cc(C=O)ccc1OCc1csc(N2CCCCC2)n1 = 129 to 130 °C
COc1c(C)cc2c(c1C)C[C@@H]1c3ccccc3N[C@H]21 (relative stereo) = 117 °C
CC(=O)NCCc1ccc(NC(=O)C=C2CC(C(=O)OCc3ccccc3)Nc3cc(Cl)cc(Cl)c32)cc1 (racemic) = 235 to 238 °C

I'd like to know its melting point. The compound in question is Nc1nc(-c2ccncc2)nc2c1c(Cl)nn2C1CCCC1
132 to 134 °C

Now give it for NC(c1cc(-c2ccc(F)cc2)c(-c2ccc(F)cc2)[nH]1)(C(F)(F)F)C(F)(F)F too.
88 to 89 °C

Now give it for COc1ccc(S(=O)(=O)N(CC(N)=O)c2ccc(Cl)cc2Cc2cc(Cl)ccc2Cl)cc1OC too.
200 °C

Now give it for CCOC(=O)c1cc2c(cn1)[nH]c1c(Br)cc([N+](=O)[O-])cc12 too.
291 to 292 °C

Now give it for COc1ccc(C#Cc2ccc(C=O)cc2)cc1 too.
106 °C

Now give it for CCCC(OCCc1ccc(-c2ccc(Cl)cc2)cc1)C(=O)O (stereo unspecified) too.
89 to 90 °C

----------
Below, each entry is listed with its recorded melting point.

CCc1cc(Oc2cccnc2)c(S(C)(=O)=O)cc1C(=O)N=C(N)N = 219 to 223 °C
CC1(C)C(=O)N(c2ccc(C#N)c(C(F)(F)F)c2)C(=O)N1CCCCO[N+](=O)[O-] = 74 to 75 °C
Nc1nc(O)c2c(n1)NCC(CCc1ccc(C(=O)N[C@@H](CCC(=O)O)C(=O)O)s1)C2 (stereo not given in full) = 204 to 230 °C
CN(C)c1cccc2nc3cccc(C(=O)O)c3nc12 = 186 to 188 °C
COC(=O)C(C(=O)OC)N(C(N)=O)c1ccc(C=NO)cc1 = 162 °C

I'd like to know its melting point. The compound in question is CCOC(=O)c1sc(SC(C)C)c2c1CCc1nc(C)oc1-2
62 to 63 °C

Now give it for COc1cc2c(cc1C)OC1(CC2(C)C)CC(C)(C)c2cc(OCC(=O)O)c(C)cc2O1 (stereo not given) too.
195 to 197 °C

Now give it for Cc1onc2c(=O)[nH]nc(-c3ccc(O)cc3)c12 too.
268 to 276 °C

----------
Below, each entry is listed with its recorded melting point.

Worked set:
CN(C)C(=O)CCc1ccc(OCCN(C)c2nc3ccccc3o2)cc1 = 103 to 105 °C
O=C1C=CC(Br)N(CCl)N1 (centres undefined) = 90 °C
Nc1cccc(Oc2ccc(Oc3cccc(N)c3)cc2)c1 = 98 to 99 °C
Cc1ccc(NCc2ccc(/C=C/C(=O)O)cc2)cc1Nc1nccc(-c2cccnc2)n1 = 234 to 242 °C
CCOC(=O)C=Cc1ccc(NC(=O)Nc2cccnc2)cc1 = 188 to 189 °C
NC(N)C(=O)c1ccccc1 = 104 to 107 °C
Fc1cnc(OC(c2ccnc3cc(Cl)ccc23)C(F)(F)F)nc1 (centres undefined) = 92 °C
CN1c2ccccc2C(C)(C)C12CNc1c(cc(N3CCCCC3)c3oc4ccccc4c13)O2 (centres undefined) = 214 to 216 °C

For the next question, use this molecule.
I'd like to know its melting point. The molecule in question is CCOC(=O)c1cc(NCc2ccccc2)c(Nc2ccc(C)cc2)c(S(N)(=O)=O)c1
159 to 160 °C

----------
Assay Readout: melting point

Worked set:
Nc1c(C2CNCCO2)oc2ccccc2c1=O (centres undefined) = 140 to 141 °C
O=C(Nc1ccc(Cl)cn1)c1oc2ccc(C(=O)N3CCOCC3)cc2c1NC(=O)[C@H]1CC[C@H](N2CCCC2=O)CC1 = 253 to 255 °C
COCOc1ccccc1C=CC(=O)O = 133 to 134 °C

For the next question, use this compound.
I'd like to know its melting point. The compound in question is CC1(C)OC(c2ccc(S(C)(=O)=O)cc2)=C(c2cccc(F)c2)C1=O
178 to 179 °C

----------
Assay Readout: melting point

Worked set:
CC1(C)N(CC(N)=O)C(=O)CN1C(=O)CN1CCCC1=O = 225 to 227 °C
O=C(O)Cc1c(Cl)c(F)nc(F)c1Cl = 157 to 159 °C
CC(C)CN1C(=O)C(CC(=O)O)OC(C)(c2ccccc2Cl)c2cc(Cl)ccc21 (configuration not stated) = 153 to 154 °C
CCn1ncc(OCc2ccc(OCOC)cc2)c(Br)c1=O = 104 to 106 °C
Cc1ccc(Sc2cncc3sc(C(N)=O)cc23)c(C)c1 = 193 to 195 °C

I'd like to know its melting point. The compound in question is CN(C)c1ccc(C(=O)N2CCC(Nc3nc(Nc4cccc(C(F)(F)F)c4)nc(OCC(F)(F)F)n3)CC2)cc1
123 to 125 °C

Now give it for CC(=O)c1ccc(N2CCN(C(=O)c3c(Cl)ccc([N+](=O)[O-])c3Cl)CC2)c(F)c1 too.
209 to 211 °C

----------
Below, each entry is listed with its recorded melting point.

Worked set:
Clc1nccnc1SN=Cc1ccccc1 = 93 to 94 °C
COc1ccc(C#N)cc1/C=C/C(=O)Sc1nc2ccccc2s1 = 183 to 185 °C
C#Cc1ccc2c(c1)C(c1ccccn1)=NCc1c(-c3nc(C(C)C)no3)ncn1-2 = > 200 °C

I'd like to know its melting point. The compound in question is CCN(CC)CCNC(=O)c1cnc(-c2ccccc2)nc1S
178 to 180 °C

Now give it for Nc1nc2ccccc2c2c1ncn2CCOCCCc1cncnc1 too.
159 to 161 °C

Now give it for OC1CCNc2nc(Br)ccc21 (configuration not stated) too.
130 to 131 °C

Now give it for N#CCc1c[nH]c2ccc(CS(=O)(=O)Oc3ccccc3)cc12 too.
134 to 135 °C

Now give it for CC(C)(CO)Cc1ccc(CC(C)(C)CO)cc1 too.
104 to 105 °C

Now give it for CC(C)(C)OC(=O)Nc1ccccc1NC(=O)c1nc2c(s1)CN(C(=O)OC(C)(C)C)CC2 too.
188 °C

Now give it for C[C@]1(CN2CCC(Nc3ccc(OC(F)(F)F)cc3)CC2)Cn2cc([N+](=O)[O-])nc2O1 too.
108 to 109 °C

----------
Assay Readout: melting point (°C)
Just the number in °C, nothing appended.

Cc1cc(C)c(C(=O)P2(=O)Oc3ccccc3-c3ccccc32)c(C)c1 (stereo not given) = 109

For the next question, use this compound.
I'd like to know its melting point. The compound in question is CCOC(=O)c1ccc(-c2ccc3c(c2)C(Nc2ccc(Cl)cc2)CC(C)N3C(C)=O)cc1 (stereo not given)
114

----------
Below, each entry is listed with its recorded melting point.

Worked set:
CCCCCCCCCCCCCCCCCCOC(=O)Nc1ccc(NC(=O)NS(=O)(=O)c2ccc3ccccc3c2)cc1 = 178 °C
Cc1ccc(N2CCN(CCCN3c4cccc5cccc(c45)S3(=O)=O)CC2)cc1 = 136 °C
CCOC(=O)c1ccc(NCc2ccc(Cl)s2)cc1 = 108 to 109 °C
NCCNc1ccc2[nH]ncc2c1 = 150 to 165 °C
CCC[C@H]1C(=O)N(S(=O)(=O)c2cccc3ccccc23)[C@H]2CCN(S(=O)(=O)CCCN3CCOCC3)[C@H]12 (relative stereo) = 146 to 148 °C

I'd like to know its melting point. The molecule in question is O=CC1(Nc2ccccc2)CCN(Cc2ccccc2)CC1
118 to 119 °C
